Target or system Endothelin receptor type B (Homo sapiens, UniProt P24530); recorded quantity pIC50.
pIC50: −log10 of the molar value.

INSERT INTO measurements (structure_smiles_string, recorded_endpoint, reported_result) VALUES
  ('Cc1ccccc1OC(=O)c1sccc1S(=O)(=O)Nc1onc(C)c1Br', 'pIC50', '< 4.00'),
  ('Cc1cccc(OC(=O)c2sccc2S(=O)(=O)Nc2onc(C)c2Br)c1', 'pIC50', '< 4.00'),
  ('Cc1ccc(OC(=O)c2sccc2S(=O)(=O)Nc2onc(C)c2C)c(C)c1', 'pIC50', '< 4.00'),
  ('Cc1noc(NS(=O)(=O)c2ccsc2C(=O)Oc2ccccc2)c1C', 'pIC50', '< 4.00'),
  ('Cc1noc(NS(=O)(=O)c2ccsc2C(=O)Oc2ccc3c(c2)OCO3)c1Cl', 'pIC50', 5.10),
  ('Cc1ccc(OC(=O)c2sccc2S(=O)(=O)Nc2onc(C)c2Br)cc1', 'pIC50', 5.04);

Now for a further molecule.
Q: # lookup: Endothelin receptor type B (Homo sapiens, UniProt P24530) pIC50, key = Cc1ccc(OC(=O)c2sccc2S(=O)(=O)Nc2onc(C)c2Cl)cc1
Ans: < 4.00

* * *

Protein target, amino acids: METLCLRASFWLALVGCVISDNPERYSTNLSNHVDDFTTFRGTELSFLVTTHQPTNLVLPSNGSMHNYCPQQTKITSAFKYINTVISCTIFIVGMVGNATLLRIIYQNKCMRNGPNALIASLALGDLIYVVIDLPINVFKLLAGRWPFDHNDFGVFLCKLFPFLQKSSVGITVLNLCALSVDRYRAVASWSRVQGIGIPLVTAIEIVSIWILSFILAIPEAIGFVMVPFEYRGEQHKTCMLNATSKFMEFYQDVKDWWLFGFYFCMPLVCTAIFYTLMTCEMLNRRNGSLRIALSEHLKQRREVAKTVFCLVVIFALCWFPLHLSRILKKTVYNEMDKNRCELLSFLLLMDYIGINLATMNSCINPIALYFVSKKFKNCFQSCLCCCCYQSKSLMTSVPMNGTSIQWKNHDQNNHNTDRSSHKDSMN
Rule for this label: Y means IC50 is less than 1000 nM; N means IC50 is at least 1000 nM.

Q: API: query returns whether the molecule falls strictly under 1000 nM in IC50. Query: Cc1noc(NS(=O)(=O)c2ccsc2C(=O)Nc2ccccc2)c1Cl
Ans: Y

Q: API: query returns whether the molecule falls strictly under 1000 nM in IC50. Query: Cc1noc(NS(=O)(=O)c2ccsc2C(=O)O)c1Cl
Ans: N

* * *

Target: UniProtKB P25101
Overview of reported pIC50 across a group of molecules:
The quantity pIC50 is defined as the negative base-10 logarithm of the molar concentration.

Below, 3 molecules whose answers are already recorded.
INSERT INTO measurements (structure_smiles_string, reported_result) VALUES
  ('COC(=O)c1sccc1S(=O)(=O)Nc1onc(C)c1Br', 6.13),
  ('Cc1noc(NS(=O)(=O)c2ccsc2C(=O)Oc2ccccc2)c1C', 5.39),
  ('Cc1noc(NS(=O)(=O)c2ccsc2C(=O)Nc2ccccc2)c1C', 6.26);

Q: # lookup: UniProtKB P25101 pIC50, key = COC(=O)c1sccc1S(=O)(=O)Nc1onc(C)c1C
Ans: 5.46
